- Target: glucose-6-phosphate dehydrogenase (G6PDH) (Homo sapiens, UniProt P11413)
- Construct: endogenous in cells
- Sequence (P11413 2-515 limits assumed): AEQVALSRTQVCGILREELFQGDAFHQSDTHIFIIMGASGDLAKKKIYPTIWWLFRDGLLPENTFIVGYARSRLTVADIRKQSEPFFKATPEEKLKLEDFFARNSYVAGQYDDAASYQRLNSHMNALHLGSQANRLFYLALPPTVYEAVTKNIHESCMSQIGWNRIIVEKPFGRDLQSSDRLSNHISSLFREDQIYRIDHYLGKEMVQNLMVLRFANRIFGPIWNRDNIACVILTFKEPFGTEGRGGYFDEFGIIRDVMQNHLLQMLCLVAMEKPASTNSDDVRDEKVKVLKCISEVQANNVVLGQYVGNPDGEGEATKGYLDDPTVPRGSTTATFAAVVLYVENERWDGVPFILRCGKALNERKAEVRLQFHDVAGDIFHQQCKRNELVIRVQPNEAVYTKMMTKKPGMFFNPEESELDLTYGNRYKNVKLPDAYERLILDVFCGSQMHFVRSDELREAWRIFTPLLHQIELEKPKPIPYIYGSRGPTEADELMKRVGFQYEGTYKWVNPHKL
- Assay: G6PDH activity in lysates of inhibitor-treated erythrocytes
- Measurement Conditions: erythrocytes treated 24 h, 0.6% Hct; read-out: EC50 (inhibition of G6PDH activity)
pEC50: −log10 of the molar value. Counter-ions that a name gives are not always drawn.
Recorded Metric: pEC50

In [3]: df
Out[3]:
                                   compound  experimental_value
0  C=C1C(=O)O[C@H]2[C@H]1CC/C(C)=C/CC[C@@]1(C)O[C@@H]21 [Parthenolide, parthenolide]                4.92
1              Cc1ccc(S(=O)(=O)/C=C/C#N)cc1                5.00
2  COC(=O)/C=C/C(=O)OC [DMF, dimethyl fumarate]                3.85

====

- Target: glutathione reductase (GR) (Homo sapiens, UniProt P00390)
- Construct: endogenous in cells
- Sequence (P00390 44-522): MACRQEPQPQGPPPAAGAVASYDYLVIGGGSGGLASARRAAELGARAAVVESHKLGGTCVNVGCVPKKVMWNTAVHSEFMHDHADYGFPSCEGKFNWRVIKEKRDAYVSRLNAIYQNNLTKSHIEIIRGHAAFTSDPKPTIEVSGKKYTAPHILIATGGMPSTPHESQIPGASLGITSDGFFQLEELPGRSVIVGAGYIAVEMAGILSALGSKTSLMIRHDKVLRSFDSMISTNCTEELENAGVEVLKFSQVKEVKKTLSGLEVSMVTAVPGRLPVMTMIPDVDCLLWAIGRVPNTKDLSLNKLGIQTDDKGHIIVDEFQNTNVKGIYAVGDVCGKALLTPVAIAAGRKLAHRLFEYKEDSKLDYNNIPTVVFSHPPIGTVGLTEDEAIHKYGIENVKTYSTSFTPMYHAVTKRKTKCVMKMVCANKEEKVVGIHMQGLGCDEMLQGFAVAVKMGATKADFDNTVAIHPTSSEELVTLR
- Assay: GR activity (+/- FAD) in lysates of inhibitor-treated erythrocytes
- Measurement Conditions: erythrocytes treated 24 h, 0.6% Hct; read-out: EC50 (inhibition of GR activity)
Recorded Metric: EC50 (µM)

In [3]: df
Out[3]:
                     cpd_smiles  recorded_metric  experimental_value
0  Cc1ccc(S(=O)(=O)/C=C/C#N)cc1             EC50                  10

The measurements presented in this section are drawn from paper PMC4926109.
